The reported numbers originate from the Human Domainome abundance scans (Beltran et al. 2025).

Consider the following variants; for each one, report its abundance fitness.
B1: POU domain, class 2, transcription factor 2, residues 200 to 269; numbered along this chain, P09086 (parent)
chain: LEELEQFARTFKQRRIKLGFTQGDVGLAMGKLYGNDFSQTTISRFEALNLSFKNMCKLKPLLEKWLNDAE

- Variants of: B1
- method notes: abundance fitness (aPCA) (normalised: wild type 0, dead -1); higher = more abundant; growth selection in yeast, the domain comes from the species named
- experimental parameters: Homo sapiens
I only need the number, thanks.

[Q] State the recorded abundance fitness for this entry: `P60Y`
[A] -0.378

[Q] State the recorded abundance fitness for this entry: `L48K`
[A] 0.07

[Q] State the recorded abundance fitness for this entry: `R14T`
[A] 0.023

[Q] State the recorded abundance fitness for this entry: `K31Y`
[A] -0.178

[Q] State the recorded abundance fitness for this entry: `S43G`
[A] 0

[Q] State the recorded abundance fitness for this entry: `G34F`
[A] -0.177

[Q] State the recorded abundance fitness for this entry: `F52A`
[A] -0.038

[Q] State the recorded abundance fitness for this entry: `L58Y`
[A] -0.157

[Q] State the recorded abundance fitness for this entry: `A28Q`
[A] 0.061

[Q] State the recorded abundance fitness for this entry: `T40R`
[A] -0.021

[Q] State the recorded abundance fitness for this entry: `Q6E`
[A] -0.045

[Q] State the recorded abundance fitness for this entry: `T10F`
[A] 0.003

[Q] State the recorded abundance fitness for this entry: `G19W`
[A] -0.926

[Q] State the recorded abundance fitness for this entry: `L1N`
[A] 0.008

[Q] State the recorded abundance fitness for this entry: `L27A`
[A] 0.041

[Q] State the recorded abundance fitness for this entry: `A69F`
[A] -0.179

[Q] State the recorded abundance fitness for this entry: `N54Q`
[A] 0.11

[Q] State the recorded abundance fitness for this entry: `D36G`
[A] -0.06

[Q] State the recorded abundance fitness for this entry: `I42G`
[A] -1.02

[Q] State the recorded abundance fitness for this entry: `L4W`
[A] -0.201

[Q] State the recorded abundance fitness for this entry: `R15V`
[A] -0.806

[Q] State the recorded abundance fitness for this entry: `E2A`
[A] -0.14

[Q] State the recorded abundance fitness for this entry: `K59G`
[A] -0.079

[Q] State the recorded abundance fitness for this entry: `A47K`
[A] -0.054

[Q] State the recorded abundance fitness for this entry: `Y33N`
[A] -0.156

[Q] State the recorded abundance fitness for this entry: `A28H`
[A] -0.064

[Q] State the recorded abundance fitness for this entry: `Y33A`
[A] -0.057

[Q] State the recorded abundance fitness for this entry: `P60L`
[A] -0.156

[Q] State the recorded abundance fitness for this entry: `K17V`
[A] -0.063

[Q] State the recorded abundance fitness for this entry: `L27V`
[A] 0.015

[Q] State the recorded abundance fitness for this entry: `T21L`
[A] -0.323

[Q] State the recorded abundance fitness for this entry: `E46H`
[A] -0.944

[Q] State the recorded abundance fitness for this entry: `G23D`
[A] -0.055

[Q] State the recorded abundance fitness for this entry: `T41L`
[A] -0.041

[Q] State the recorded abundance fitness for this entry: `I42T`
[A] -0.552

[Q] State the recorded abundance fitness for this entry: `G19E`
[A] -0.301

[Q] State the recorded abundance fitness for this entry: `A8H`
[A] -0.604

[Q] State the recorded abundance fitness for this entry: `L4F`
[A] -0.055

[Q] State the recorded abundance fitness for this entry: `L18E`
[A] -0.253

[Q] State the recorded abundance fitness for this entry: `F11Q`
[A] -1.01

[Q] State the recorded abundance fitness for this entry: `L1R`
[A] -0.169

[Q] State the recorded abundance fitness for this entry: `L50N`
[A] -0.53

[Q] State the recorded abundance fitness for this entry: `F37I`
[A] 0.088

[Q] State the recorded abundance fitness for this entry: `G23A`
[A] 0.04

[Q] State the recorded abundance fitness for this entry: `L66F`
[A] -0.27

[Q] State the recorded abundance fitness for this entry: `G30F`
[A] -0.001
